pIC50: −log10 of the molar value.
These records show pIC50 for HDAC4 (Homo sapiens, UniProt P56524).
assay metric: pIC50

CCn1c(N)c(C(c2ccccc2)c2c(N)n(CC)c(=S)[nH]c2=O)c(=O)[nH]c1=S [Compound 5a] : 4.91
CCCn1c(N)c(C(c2ccc(Cl)cc2Cl)c2c(N)n(CCC)c(=O)[nH]c2=O)c(=O)[nH]c1=O [Compound 5k] : 4.89

* * *

assay metric: melting point

Recorded melting point, per entry:
CCCn1c(N)c(C(c2ccc(Cl)cc2)c2c(N)n(CCC)c(=O)[nH]c2=O)c(=O)[nH]c1=O [Compound 5m] : 257 to 258 °C
CCCn1c(N)c(C(c2ccccc2)c2c(N)n(CCC)c(=O)[nH]c2=O)c(=O)[nH]c1=O [Compound 5i] : 294 to 295 °C

Next compound, please.
melting point for CCn1c(N)c(C(c2ccc(OC)cc2)c2c(N)n(CC)c(=S)[nH]c2=O)c(=O)[nH]c1=S [Compound 5e] is 260 to 261 °C

* * *

Known pIC50 of a selection of molecules
Test system: colorectal carcinoma (HCT-116)
test name: MTT anti-proliferative assay, HCT-116
Format: cell-based
settings: Homo sapiens, HCT-116, read-out: Cytotoxicity IC50 HCT-116
Lab note — pIC50 values are minus log10 of concentrations in M.

CCCn1c(N)c(C(c2ccc(C)cc2)c2c(N)n(CCC)c(=O)[nH]c2=O)c(=O)[nH]c1=O : 3.40

pIC50 for CCn1c(=S)[nH]c(=O)c2c(-c3ccc(Cl)cc3)c3c(=O)[nH]c(=S)n(CC)c3nc21 is 3.44

pIC50 for CCn1c(N)c(C(c2ccc(OC)cc2)c2c(N)n(CC)c(=S)[nH]c2=O)c(=O)[nH]c1=S is 4.05

* * *

test name: in vitro
settings: human
assay metric: IC50 (µM)
Lab book: enter the figure in µM, no units written.

IC50 for CCCn1c(N)c(C(c2ccc(Cl)cc2)c2c(N)n(CCC)c(=O)[nH]c2=O)c(=O)[nH]c1=O is 65.7

* * *

Known melting point of a selection of compounds

CCn1c(=S)[nH]c(=O)c2c(-c3cccs3)c3c(=O)[nH]c(=S)n(CC)c3nc21 [Compound 7c] : 216 to 217 °C
CCn1c(N)c(C(c2ccccc2)c2c(N)n(CC)c(=S)[nH]c2=O)c(=O)[nH]c1=S [Compound 5a] : > 300 °C
CCCn1c(N)c(C(c2ccc(Cl)cc2Cl)c2c(N)n(CCC)c(=O)[nH]c2=O)c(=O)[nH]c1=O [Compound 5k] : 285 to 286 °C

Next compound, please.
melting point for CCCn1c(N)c(C(c2ccc(C)cc2)c2c(N)n(CCC)c(=O)[nH]c2=O)c(=O)[nH]c1=O [Compound 5j] is 286 to 287 °C

* * *

Known pIC50 of a selection of molecules
Tested on: colorectal carcinoma (HCT-116)
test name: MTT anti-proliferative assay, HCT-116
Type: cell-based
settings: Homo sapiens, HCT-116, read-out: Cytotoxicity IC50 HCT-116
Lab note — pIC50 values are minus log10 of concentrations in M.

Recorded pIC50, per entry:
CCn1c(=S)[nH]c(=O)c2c(-c3cccs3)c3c(=O)[nH]c(=S)n(CC)c3nc21 : 3.61
CNC(=O)c1cc(Oc2ccc(NC(=O)Nc3ccc(Cl)c(C(F)(F)F)c3)cc2)ccn1 [Sorafenib, reference compound] : 3.75
CCCn1c(N)c(Cc2c(N)n(CCC)c(=O)[nH]c2=O)c(=O)[nH]c1=O : 4.04
CCn1c2c(c(=O)[nH]c1=S)C(c1ccccc1)c1c(n(CC)c(=S)[nH]c1=O)N2 : 3.54
CCn1c(N)c(C(c2ccc(Cl)cc2)c2c(N)n(CC)c(=S)[nH]c2=O)c(=O)[nH]c1=S : 4.01

pIC50 for CCCn1c(N)c(C(c2ccc(Cl)cc2Cl)c2c(N)n(CCC)c(=O)[nH]c2=O)c(=O)[nH]c1=O is 4.10

pIC50 for CCCn1c(N)c(C(c2ccc(Cl)cc2)c2c(N)n(CCC)c(=O)[nH]c2=O)c(=O)[nH]c1=O is 4.11

pIC50 for CCCn1c2c(c(=O)[nH]c1=O)Cc1c(n(CCC)c(=O)[nH]c1=O)N2 is 3.44

pIC50 for CCCn1c(N)c(C(c2ccc(OC)cc2)c2c(N)n(CCC)c(=O)[nH]c2=O)c(=O)[nH]c1=O is 4.08

pIC50 for CCn1c(N)c(C(c2ccc(C)cc2)c2c(N)n(CC)c(=S)[nH]c2=O)c(=O)[nH]c1=S is 4.68

pIC50 for CCn1c(N)c(C(c2ccc([N+](=O)[O-])cc2)c2c(N)n(CC)c(=S)[nH]c2=O)c(=O)[nH]c1=S is 4.15
